Conditions: in ethyl formate, 328.15 K
outcome measure: solubility (mole fraction)
The answer should be written as a number, with no unit following it.

Incoming: Param item = CC(=O)OC(c1ccccc1)C(Cl)(Cl)Cl (stereo unspecified) ; retrieve measured solubility (mole fraction).
Outgoing: 0.363

###

Details: in acetic acid, 323.15 K
outcome measure: solubility (mole fraction)
Answer field: number only, no words.

Incoming: # solubility (mole fraction) lookup, item CC(=O)OC(c1ccccc1)C(Cl)(Cl)Cl (stereo unspecified)
Outgoing: 0.127

###

Conditions: in ethyl formate, 298.15 K
outcome measure: solubility (mole fraction)
Form rule: numeric answer, no unit written next to it.

Incoming: Need solubility (mole fraction), item CC(=O)OC(c1ccccc1)C(Cl)(Cl)Cl (stereo unspecified)
Outgoing: 0.132
